test system: MDA-MB-231; experiment: Antiproliferative activity against human MDA-MB-231 cells assessed as reduction in cell viability; assay type: functional, cell-based
Observation Type: IC50 (µM)

structure_string=C.C[C@H]1[C@@H](CC(=O)O[C@@H]2C[C@@H](OC(=O)C[C@H]3O[C@@H]4O[C@@]5(C)CC[C@H]6[C@H](C)CC[C@@H]([C@H]3C)[C@@]46OO5)[C@H](C)O[C@H]2O[C@H](C)CCCCC(=O)O)O[C@@H]2O[C@@]3(C)CC[C@H]4[C@H](C)CC[C@@H]1[C@@]24OO3 test_system=MDA-MB-231 obs_value=5.5
structure_string=CCOC(=O)c1cc2ccc(OCCCn3cc(CO[C@H]4O[C@@H]5O[C@@]6(C)CC[C@H]7[C@H](C)CC[C@@H]([C@H]4C)[C@@]57OO6)nn3)cc2oc1=O test_system=MDA-MB-231 obs_value=0.43
